Below, each entry is listed alongside its reported Dmax.
Target: EGFR-L858R/C797S (H1975-clone #8 cells) (Homo sapiens, UniProt P00533, C797S/L858R)
Construct: expressed in transfected cells; host or cells: H1975 (endogenous EGFR knocked out, clone #8)
Sequence (P00533 25-1210 C797S/L858R): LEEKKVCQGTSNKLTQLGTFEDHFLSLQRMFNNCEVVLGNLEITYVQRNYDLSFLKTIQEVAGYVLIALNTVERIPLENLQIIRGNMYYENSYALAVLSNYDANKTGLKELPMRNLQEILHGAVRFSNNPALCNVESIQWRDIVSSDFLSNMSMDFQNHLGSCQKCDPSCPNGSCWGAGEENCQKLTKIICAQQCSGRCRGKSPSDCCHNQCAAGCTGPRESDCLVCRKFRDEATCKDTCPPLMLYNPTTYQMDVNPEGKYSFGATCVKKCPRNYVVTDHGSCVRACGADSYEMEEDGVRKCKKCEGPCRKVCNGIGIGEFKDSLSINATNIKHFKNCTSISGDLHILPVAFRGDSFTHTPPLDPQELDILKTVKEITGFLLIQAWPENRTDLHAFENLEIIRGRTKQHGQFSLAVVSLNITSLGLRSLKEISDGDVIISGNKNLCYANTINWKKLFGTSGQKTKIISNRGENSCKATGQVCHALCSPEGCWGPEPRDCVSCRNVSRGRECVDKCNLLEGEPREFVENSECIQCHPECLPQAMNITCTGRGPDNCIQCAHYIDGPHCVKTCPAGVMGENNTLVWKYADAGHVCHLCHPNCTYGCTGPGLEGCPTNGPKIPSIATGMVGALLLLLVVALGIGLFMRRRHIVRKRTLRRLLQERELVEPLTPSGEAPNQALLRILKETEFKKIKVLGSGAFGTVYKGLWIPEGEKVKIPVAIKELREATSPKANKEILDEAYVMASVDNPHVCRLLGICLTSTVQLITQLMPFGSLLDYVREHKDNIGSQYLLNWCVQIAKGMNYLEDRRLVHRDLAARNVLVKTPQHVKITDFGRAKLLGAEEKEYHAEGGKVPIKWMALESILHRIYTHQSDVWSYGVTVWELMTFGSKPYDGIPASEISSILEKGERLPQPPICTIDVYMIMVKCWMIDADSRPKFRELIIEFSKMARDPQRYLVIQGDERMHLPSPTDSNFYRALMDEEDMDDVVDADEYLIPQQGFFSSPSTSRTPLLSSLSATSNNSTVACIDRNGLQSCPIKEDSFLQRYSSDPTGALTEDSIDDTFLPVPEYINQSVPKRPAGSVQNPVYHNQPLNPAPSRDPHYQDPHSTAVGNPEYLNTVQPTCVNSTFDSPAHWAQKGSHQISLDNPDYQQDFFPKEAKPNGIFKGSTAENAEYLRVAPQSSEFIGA
Assay: Cell degradation of EGFR, HTRF assay, H1975-clone#8 (L858R/C797S) cells
Format: cell-based
Conditions: 16 h treatment, maximum percentage of degradation
Protocol: The EGFR over-expressed cells then underwent knockout, in which the EGFR targeting sgRNA was designed to only target the endogenous EGFR copies and preserve the exogenous EGFR copies. Followed by the knockout, the edited H1975 cells were seeded in 96 well plates at the concentration of […], cultured for about 2 weeks to allow single clones formation. […] High control=Cell group with added DMSO and without compound, indicating microplate readings without EGFR degradation; […]

For orientation, consider the following solved cases.
compound	experimental.target	Dmax
Cc1cc2cc(n1)-c1c(C)nn(C)c1OC[C@H]1CC[C@H](C1)CN1/C(=N/C2=O)Nc2ccc(N3CCN(CC4CCN(c5cc(F)c([C@H]6CCC(=O)NC6=O)c(F)c5)CC4)CC3)cc21	EGFR-L858R/C797S (H1975-clone #8 cells) (Homo sapiens, UniProt P00533, C797S/L858R)	79.8%
Cc1cc2cc(n1)-c1cnn(C)c1OC[C@H]1CC[C@H](C1)CN1/C(=N/C2=O)Nc2ccc(N3CCN(C4CCN(c5cc(F)c(C6CCC(=O)NC6=O)nc5C)CC4)CC3)cc21 (stereo partly drawn)	EGFR-L858R/C797S (H1975-clone #8 cells) (Homo sapiens, UniProt P00533, C797S/L858R)	86.6%
Cc1cc2cc(n1)-c1cnn(C)c1OC[C@H]1CC[C@H](C1)CN1/C(=N/C2=O)Nc2ccc(N3CCN(C4CCN(c5cccc6c5C(C)(C)C(=O)N6C5CCC(=O)NC5=O)CC4)CC3)cc21 (stereo partly drawn)	EGFR-L858R/C797S (H1975-clone #8 cells) (Homo sapiens, UniProt P00533, C797S/L858R)	75.7%
Cc1cc2cc(n1)-c1cnn(C)c1OC[C@H]1CCC(C1)CN1/C(=N/C2=O)Nc2ccc(N3CCC(N4CCC(Nc5cc(F)c([C@H]6CCC(=O)NC6=O)c(F)c5)CC4)CC3)cc21 (single isomer, unassigned)	EGFR-L858R/C797S (H1975-clone #8 cells) (Homo sapiens, UniProt P00533, C797S/L858R)	83.4%
COC[C@H]1CN(c2ccc3c(c2)N2C[C@@H]4CC[C@H](COc5c(c(C)nn5C)-c5cc(cc(C)n5)C(=O)/N=C/2N3)C4)CCN1C1CCN(c2ccc(OC3CCC(=O)NC3=O)cc2C)CC1 (stereo partly drawn)	EGFR-L858R/C797S (H1975-clone #8 cells) (Homo sapiens, UniProt P00533, C797S/L858R)	85.6%

**Query** // Input: Cc1cc2cc(n1)-c1cnn(C)c1OC[C@H]1CCC(C1)CN1/C(=N/C2=O)Nc2ccc(N3CCN(C4CCN(c5ccc(OC6CCC(=O)NC6=O)cc5F)CC4)CC3)cc21 (stereo partly drawn) . Output its Dmax only.
**Result** 82.9%

====

Molecular target: EGFR-L858R/C797S (H1975-clone #8 cells) (Homo sapiens, UniProt P00533, C797S/L858R)
Construct: expressed in transfected cells; host or cells: H1975 (endogenous EGFR knocked out, clone #8)
Experiment: Cell degradation of EGFR, HTRF assay, H1975-clone#8 (L858R/C797S) cells
Type: cell-based
Conditions: 16 h treatment, EGFR degradation
quantity.measured: DC50 (nM)
Please state the figure in nM; there is no need to write the unit.

**Query** // Input: Cc1cc2cc(n1)-c1c(C)nn(C)c1OC[C@H]1CC[C@H](C1)CN1/C(=N/C2=O)Nc2ccc(N3CC4CCC3CN4C3CCN(c4cc(F)c([C@H]5CCC(=O)NC5=O)c(F)c4)CC3)cc21 . Output its DC50 only.
**Result** 0.76

**Query** // Input: Cc1cc2cc(n1)-c1cnn(C)c1OC[C@H]1CCC(C1)CN1/C(=N/C2=O)Nc2cc(C)c(N3CCN([C@@H]4CCN(c5ccc(C6CCC(=O)NC6=O)nc5C)C[C@@H]4F)CC3)cc21 (stereo partly drawn) . Output its DC50 only.
**Result** 0.76
